Tested on: LOC_OS01G57100-cb003
Experiment: thermal shift delta Tm vs DMSO control; higher = stronger stabilization (binding);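 further: purified Escherichia coli-expressed rice kinase domain construct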
Conditions: 12.5 µM; protein concentration 2 µM
Structures can show the parent of a compound that is named as a salt.
MEASURE: thermal shift delta Tm

> print(dat)
                                   molecule                 measure  reported.value
1  COc1ccc(C(=O)Nc2sc3c(c2C(N)=O)CCCC3)cc1OC  thermal shift delta Tm          1.3 °C
2  COc1cc2c(Nc3ccc(NC(=O)c4ccccc4)cc3)ncnc2cc1OCCCN1CCOCC1  thermal shift delta Tm         0.97 °C
3  CNC(=O)c1cc(Oc2ccc(NC(=O)Nc3ccc(Cl)c(C(F)(F)F)c3)cc2)ccn1 [Sorafenib Tosylate]  thermal shift delta Tm         4.07 °C
4         O=C(NCc1ccccc1)c1csc(Nc2ccncn2)n1  thermal shift delta Tm         1.74 °C

thermal shift delta Tm recorded for this molecule, "Cc1nc(Nc2ncc(C(=O)Nc3c(C)cccc3Cl)s2)cc(N2CCN(CCO)CC2)n1" , is 0.7 °C

====

Answer each item with its documented thermal shift delta Tm.
Tested on: LOC_OS04G35114-cb001
Test: thermal shift delta Tm vs DMSO control; higher = stronger stabilization (binding)
Settings: 12.5 µM; protein concentration 2 µM
One number for each entry, in °C.

Guide cases for thermal shift delta Tm, answers given:
> print(dat)
                                   compound  measurement.units  reported.value
1  Cc1nc2ccc(-n3ncc(C(=O)c4cc5ccccc5[nH]4)c3N)cc2[nH]1                 °C             3.8
2  CCc1cccc(CC)c1NC(=O)N1Cc2[nH]nc(NC(=O)c3ccc(N4CCN(C)CC4)cc3)c2C1                 °C            4.67
3  Cc1cc(Nc2cc(N3CCN(C)CC3)nc(Sc3ccc(NC(=O)C4CC4)cc3)n2)n[nH]1                 °C            8.53
4  CC(C)S(=O)(=O)c1ccc2nccc(Nc3ccc4scnc4c3)c2c1                 °C            2.38
5  N#CC(=C(/N)Sc1ccccc1N)/C(C#N)=C(\N)Sc1ccccc1N                 °C           -0.47

# batch size: 5; output thermal shift delta Tm per entry
1. CC[C@H](CO)Nc1nc(NCc2ccccc2)c2ncn(C(C)C)c2n1 [Roscovitine (Seliciclib,CYC202)]
2. Cc1n[nH]c2ncc(C(=O)N3CCC[C@H]3c3ccc(Cl)cc3)cc12
3. O=C1Cc2c([nH]c3ccc(Br)cc23)-c2ccccc2N1
4. O=c1cc(N2CCOCC2)oc2c(-c3cccc4c3sc3ccccc34)cccc12
5. CCn1c(=O)c(-c2ccc(-c3cncs3)cc2Cl)cc2cnc(Nc3ccc(N4CCN(C)CC4)cc3)nc21

0.57
0.28
4.7
0.58
0.85

====

Test system: LOC_OS02G07810-cb001
Assay: thermal shift delta Tm vs DMSO control; higher = stronger stabilization (binding)
Conditions: 12.5 µM; protein concentration 2 µM
Classification field: 1 (yes) = thermal shift delta Tm at or over 0.8 °C; 0 (no) = thermal shift delta Tm under 0.8 °C.

Please review the following examples before continuing.
> print(dat)
                                   molecule  label.class
1  CCn1c(N)c(C(=O)NC)c(=O)c2ccc(C#CC(C)(O)COC)nc21 (stereo not drawn)      1 (yes)
2  CC(C)(O)CC(=O)NCCn1ccc2ncnc(Nc3ccc(Oc4cccc(C(F)(F)F)c4)c(Cl)c3)c21      1 (yes)
3  Cc1cc(Nc2cc(Cl)nc(Oc3ccc([N+](=O)[O-])cc3)n2)n[nH]1       0 (no)

I'd appreciate it if you could say whether "CCN1CCN(Cc2ccc(-c3cc4c(N[C@H](C)c5ccccc5)ncnc4[nH]3)cc2)CC1" has thermal shift delta Tm at least equal to 0.8 °C.
1 (yes)

I'd appreciate it if you could say whether COc1cc(F)c(F)c(Nc2ccc(I)cc2F)c1NS(=O)(=O)C1(C[C@H](O)CO)CC1 [Refametinib (RDEA119, Bay 86-9766)] has thermal shift delta Tm at least equal to 0.8 °C.
1 (yes)

====

System: LOC_OS03G50810-cb003
Test: thermal shift delta Tm vs DMSO control; higher = stronger stabilization (binding)
Conditions: 12.5 µM; protein concentration 2 µM
Answer each item with its documented thermal shift delta Tm.

Guide cases for thermal shift delta Tm, answers given:
> print(dat)
                                   molecule  reported.value
1  O=C1c2ccc(Nc3ccc(F)cc3F)cc2CCc2ccc(OC[C@H](O)CO)cc21 [Skepinone-L]        -0.16 °C
2  CNc1nc(-c2ccc3c(N)n[nH]c3c2)cc(N2C[C@@H](C(=O)NC3CCCCC3)CC[C@H]2C)n1         0.87 °C
3  CCN1CCN(Cc2ccc(-c3cc4c(N[C@H](C)c5ccccc5)ncnc4[nH]3)cc2)CC1         1.13 °C
4  C#Cc1cccc(Nc2ncnc3cc(OC)c(OCCCCCCC(=O)NO)cc23)c1         1.73 °C
5  Nc1ncnc2c1c(-c1cnc3[nH]ccc3c1)nn2C1CCCC1         0.88 °C

# batch size: 4; output thermal shift delta Tm per entry
1. Cc1cc(Nc2ncc(Cl)c(Nc3ccccc3S(=O)(=O)C(C)C)n2)c(OC(C)C)cc1C1CCNCC1 [Ceritinib (LDK378)]
2. C=CC(=O)Nc1cccc(Nc2nc(Nc3ccc(OCCOC)cc3)ncc2F)c1
3. Cc1cc(C)c(/C=C2\C(=O)Nc3ccccc32)[nH]1 [Semaxanib (SU5416)]
4. Cn1cc(/C=C2\C(=O)Nc3cccnc32)c2ccccc21

["0.58 °C", "3.81 °C", "2.91 °C", "3.46 °C"]

====

Tested on: LOC_OS05G43570-cb004
Experiment: thermal shift delta Tm vs DMSO control; higher = stronger stabilization (binding)
Details: 12.5 µM; protein concentration 2 µM
Where a name gives a salt, the structure may show the parent alone.
MEASURE: thermal shift delta Tm (°C)
One number for each entry, in °C.

Guide cases for thermal shift delta Tm, answers given:
> print(dat)
                                   compound                 measure  reported.value
1  Cc1ccc(NC(=O)c2ccc(CN3CC[C@H](N(C)C)C3)c(C(F)(F)F)c2)cc1Nc1nccc(-c2cncnc2)n1  thermal shift delta Tm             0.5
2  CCN1CCN(Cc2ccc(-c3cc4c(N[C@H](C)c5ccccc5)ncnc4[nH]3)cc2)CC1  thermal shift delta Tm             0.5
3           Nc1ncnc2n[nH]c(Nc3ccc(F)cc3)c12  thermal shift delta Tm            0.52
4  CN(C)S(=O)(=O)c1ccc2c(c1)/C(=C/c1cc3c([nH]1)CCCC3)C(=O)N2  thermal shift delta Tm            0.71
5  COC1(c2sc3c(N4CCOCC4)nc(-c4cnc(N)nc4)nc3c2C)COC1  thermal shift delta Tm            1.45

# batch size: 5; output thermal shift delta Tm per entry
1. CNC(=O)c1cc(COc2nnc(Nc3ccc(Cl)cc3)c3ccoc23)ccn1
2. Nc1ncccc1-c1nc2ccc(-c3ccccc3)nc2n1-c1ccc(C2(N)CCC2)cc1 [Miransertib (ARQ 092) HCl]
3. CC1Oc2cc(cnc2N)-c2c(nn(C)c2C#N)CN(C)C(=O)c2ccc(F)cc21 (configuration not stated)
4. O=C(NC(NC(=S)Nc1ccc(F)c([N+](=O)[O-])c1)C(Cl)(Cl)Cl)C(c1ccccc1)c1ccccc1 (configuration not stated)
5. CC[C@@H]1C(=O)N(C)c2cnc(Nc3ccc(C(=O)N[C@H]4CC[C@H](N5CCN(CC6CC6)CC5)CC4)cc3OC)nc2N1C(C)C

1. 0.21
2. 0.09
3. 0.83
4. 2.15
5. 0.4

# batch size: 4; output thermal shift delta Tm per entry
1. COC(=O)N[C@@H](C)CNc1nccc(-c2cn(C(C)C)nc2-c2cc(Cl)cc(NS(C)(=O)=O)c2F)n1
2. CC(C)(C)S(=O)(=O)c1ccc2nccc(Nc3n[nH]c4ccc(F)cc34)c2c1
3. CCN1C(=O)CNc2ncc(-c3ccc(-c4nc[nH]n4)nc3C)nc21
4. C=CC(=O)Nc1cccc(Sc2nc(Nc3ccc(N4CCN(C)CC4)cc3)ncc2Cl)c1

1. 0.22
2. 0.22
3. -0.33
4. 0.95

# batch size: 3; output thermal shift delta Tm per entry
1. C[C@]1(O)C[C@@H](c2nc(-c3ccc4ccc(-c5ccccc5)nc4c3)c3c(N)nccn32)C1
2. COc1ccc(-c2cc3nccn3c(Nc3ncccc3C(N)=O)n2)cc1OC
3. Cc1ccc(C(=O)Nc2cccc(C(F)(F)F)c2)cc1Nc1nc(-c2cccnc2)nc2c1cnn2C

[0.81, 0.69, 1.18]
